Measured values drawn from ChEMBL document CHEMBL2439947 for this set.

Tested on: Lipid bilayer
Assay: Binding affinity to DPPC liposomes assessed as change in pre-transition temperature at 1:10 drug to DPPC liposome molar ratio by differential scanning calorimetric analysis
Activity calls are given as the source filed them. The calls are words filed in the database; no cut-off is given here.

{"columns": ["Compound", "Tested On", "Activity"],
 "data": [
  ["COc1ccc(C(=O)O[C@@](Cn2cncn2)(c2ccc(F)cc2F)[C@@H](C)c2ncncc2F)cc1 [VORICONAZOLE P-METHOXY BENZOATE]", "Lipid bilayer", "Active"],
  ["C[C@@H](c1ncncc1F)[C@@](Cn1cncn1)(OC(=O)c1ccc([N+](=O)[O-])cc1)c1ccc(F)cc1F [VORICONAZOLE P-NITRO BENZOATE]", "Lipid bilayer", "Active"],
  ["C[C@@H](c1ncncc1F)[C@](O)(Cn1cncn1)c1ccc(F)cc1F", "Lipid bilayer", "Active"],
  ["Cc1ccc(C(=O)O[C@@](Cn2cncn2)(c2ccc(F)cc2F)[C@@H](C)c2ncncc2F)cc1 [VORICONAZOLE TOLUATE]", "Lipid bilayer", "Active"]
]}

====

System: Lipid bilayer
Assay: Binding affinity to DPPC liposomes assessed as melting temperature at 1:10 drug to DPPC liposome molar ratio by differential scanning calorimetric analysis
Doc: threshold 40 °C (exclusive). Items with Tm beneath it return criterion met; others return criterion not met.

// below: answered molecules
{"columns": ["Molecule", "Category Label"],
 "data": [
  ["Cc1ccc(C(=O)O[C@@](Cn2cncn2)(c2ccc(F)cc2F)[C@@H](C)c2ncncc2F)cc1 [VORICONAZOLE TOLUATE]", "criterion met"],
  ["C[C@@H](c1ncncc1F)[C@](O)(Cn1cncn1)c1ccc(F)cc1F", "criterion met"]
]}

Consider the additional molecule presented here.
Q: Consider C[C@@H](c1ncncc1F)[C@@](Cn1cncn1)(OC(=O)c1ccc([N+](=O)[O-])cc1)c1ccc(F)cc1F [VORICONAZOLE P-NITRO BENZOATE] . Does its Tm lie strictly below 40 °C?
Result: criterion not met

====

Tested on: Lipid bilayer
Experiment: Binding affinity to DPPC liposomes assessed as melting temperature at 1:5 drug to DPPC liposome molar ratio by differential scanning calorimetric analysis
# Tm values compiled below
Please state the figure in °C; there is no need to write the unit.

In the examples that follow, each entry is paired with its recorded Tm.
{"columns": ["Molecule", "Units Text", "Recorded Number"],
 "data": [
  ["C[C@@H](c1ncncc1F)[C@@](Cn1cncn1)(OC(=O)c1ccc([N+](=O)[O-])cc1)c1ccc(F)cc1F [VORICONAZOLE P-NITRO BENZOATE]", "°C", 60],
  ["Cc1ccc(C(=O)O[C@@](Cn2cncn2)(c2ccc(F)cc2F)[C@@H](C)c2ncncc2F)cc1 [VORICONAZOLE TOLUATE]", "°C", 32.6],
  ["C[C@@H](c1ncncc1F)[C@](O)(Cn1cncn1)c1ccc(F)cc1F [VORICONAZOLE]", "°C", 38.5],
  ["COc1ccc(C(=O)O[C@@](Cn2cncn2)(c2ccc(F)cc2F)[C@@H](C)c2ncncc2F)cc1 [VORICONAZOLE P-METHOXY BENZOATE]", "°C", 39.1]
]}

Let us examine a further case.
Q: Param item = C[C@@H](c1ncncc1F)[C@@](Cn1cncn1)(OC(=O)c1ccccc1)c1ccc(F)cc1F [VORICONAZOLE BENZOATE] ; retrieve measured Tm.
Result: 39.5
